System: SKOV-3
experiment.summary: SRB colorimetric cell growth inhibition assay, SKOV-3
Type: cell-based
measurement.parameters: Homo sapiens, SK-OV-3; SKOV-3; total growth inhibition (cytostatic effect); read-out: TGI SKOV-3
measure.name: IC (TGI) (µM)
One number for each entry, in µM.

See these solved cases before continuing.
COc1cc(-c2c3n(c4c(=O)oc5cc(OC(=O)[C@@H](N)C(C)C)c(OC)cc5c24)CCc2cc(OC(=O)[C@@H](N)C(C)C)c(OC)cc2-3)ccc1OC(=O)[C@@H](N)C(C)C | 3.58
COc1cc(-c2c3c4cc(OC)c(OC(=O)[C@@H](NC(=O)OC(C)(C)C)C(C)C)cc4oc(=O)c3n3ccc4cc(OC(=O)[C@@H](NC(=O)OC(C)(C)C)C(C)C)c(OC)cc4c23)ccc1OC(=O)[C@@H](NC(=O)OC(C)(C)C)C(C)C | 7.42
COc1cc(-c2c3n(c4c(=O)oc5cc(OC(=O)[C@H](NC(=O)OC(C)(C)C)C(C)C)c(OC)cc5c24)CCc2cc(OC(=O)[C@H](NC(=O)OC(C)(C)C)C(C)C)c(OC)cc2-3)ccc1OC(=O)[C@H](NC(=O)OC(C)(C)C)C(C)C | 2.91

Hello, I would appreciate it if you could give IC (TGI) for each entry below.
1. COc1cc(-c2c3c4cc(OC)c(OC(=O)[C@@H]5CCCN5)cc4oc(=O)c3n3ccc4c(OC(=O)[C@@H]5CCCN5)c(OC)c(OC)cc4c23)ccc1OC(=O)[C@@H]1CCCN1
2. COc1cc(-c2c3n(c4c(=O)oc5cc(OC(=O)[C@H](N)C(C)C)c(OC)cc5c24)CCc2cc(OC(=O)[C@H](N)C(C)C)c(OC)cc2-3)ccc1OC(=O)[C@H](N)C(C)C
3. COc1cc(-c2c3c4cc(OC)c(OC(=O)[C@@H](N)C(C)C)cc4oc(=O)c3n3ccc4cc(OC(=O)[C@@H](N)C(C)C)c(OC)cc4c23)ccc1OC(=O)[C@@H](N)C(C)C

[1.24, 3.67, 0.297]

Hello, I would appreciate it if you could give IC (TGI) for each entry below.
1. COc1cc(-c2c3n(c4c(=O)oc5cc(O)c(OC)cc5c24)CCc2c-3cc(OC)c(OC)c2O)ccc1O
2. COc1cc(-c2c3n(c4c(=O)oc5cc(OC(=O)[C@@H](N)Cc6c[nH]c7ccccc67)c(OC)cc5c24)CCc2cc(OC(=O)[C@@H](N)Cc4c[nH]c5ccccc45)c(OC)cc2-3)ccc1OC(=O)[C@@H](N)Cc1c[nH]c2ccccc12
3. COc1cc2ccn3c(c(-c4ccc(OC(=O)[C@@H](N)Cc5ccccc5)c(OC)c4)c4c5cc(OC)c(OC(=O)[C@@H](N)Cc6ccccc6)cc5oc(=O)c43)c2cc1OC
4. COc1cc(-c2c3c4cc(OC)c(OC(=O)[C@@H](N)C(C)C)cc4oc(=O)c3n3ccc4c(OC(=O)[C@@H](N)C(C)C)c(OC)c(OC)cc4c23)ccc1OC(=O)[C@@H](N)C(C)C
5. COc1cc2ccn3c(c(-c4ccc(OC(=O)[C@@H](N)C(C)C)c(OC)c4)c4c5cc(OC)c(OC(=O)[C@@H](N)C(C)C)cc5oc(=O)c43)c2cc1OC
6. COc1cc(-c2c3n(c4c(=O)oc5cc(OC(=O)[C@H](Cc6c[nH]c7ccccc67)NC(=O)OC(C)(C)C)c(OC)cc5c24)CCc2cc(OC(=O)[C@H](Cc4c[nH]c5ccccc45)NC(=O)OC(C)(C)C)c(OC)cc2-3)ccc1OC(=O)[C@H](Cc1c[nH]c2ccccc12)NC(=O)OC(C)(C)C

1: 18.8; 2: 3.39; 3: 2.82; 4: 0.932; 5: 2.31; 6: 3.9

Values were extracted from patent US7396837B2.
